Numbers sourced from patent US20250009745A1.

Reported IC50 values follow for various compounds
- TARGET OR SYSTEM: CDK7 (Homo sapiens)
- Construct: purchased Carna Company
- Sequence (P50613 whole entry): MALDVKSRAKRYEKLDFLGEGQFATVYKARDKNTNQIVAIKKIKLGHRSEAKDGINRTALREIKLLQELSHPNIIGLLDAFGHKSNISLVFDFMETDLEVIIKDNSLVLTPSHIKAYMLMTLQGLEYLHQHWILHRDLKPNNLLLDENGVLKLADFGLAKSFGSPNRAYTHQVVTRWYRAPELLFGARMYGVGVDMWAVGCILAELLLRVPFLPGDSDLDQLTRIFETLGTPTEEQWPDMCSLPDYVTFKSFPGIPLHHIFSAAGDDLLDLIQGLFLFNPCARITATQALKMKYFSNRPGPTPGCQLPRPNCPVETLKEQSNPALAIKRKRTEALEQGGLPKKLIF
- Sequence (P51946 whole entry partner): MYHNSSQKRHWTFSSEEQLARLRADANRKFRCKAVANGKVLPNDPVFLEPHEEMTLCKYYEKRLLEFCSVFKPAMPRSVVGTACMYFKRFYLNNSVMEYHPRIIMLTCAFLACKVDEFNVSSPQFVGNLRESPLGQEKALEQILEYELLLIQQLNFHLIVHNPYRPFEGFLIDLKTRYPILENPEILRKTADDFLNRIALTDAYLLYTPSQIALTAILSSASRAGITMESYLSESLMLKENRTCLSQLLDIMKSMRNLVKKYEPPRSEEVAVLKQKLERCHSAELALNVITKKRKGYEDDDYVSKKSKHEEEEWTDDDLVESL
- Sequence (P51948 whole entry partner): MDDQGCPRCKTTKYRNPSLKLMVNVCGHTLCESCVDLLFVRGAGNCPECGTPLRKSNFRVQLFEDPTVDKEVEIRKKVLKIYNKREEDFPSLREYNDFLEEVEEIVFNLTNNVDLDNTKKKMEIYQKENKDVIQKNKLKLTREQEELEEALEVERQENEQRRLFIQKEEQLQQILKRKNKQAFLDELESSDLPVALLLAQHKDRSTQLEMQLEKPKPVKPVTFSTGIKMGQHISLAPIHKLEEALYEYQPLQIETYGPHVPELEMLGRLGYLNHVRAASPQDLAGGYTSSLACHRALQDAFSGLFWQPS
- ASSAY NAME: CDK enzymology experiment in vitro, capillary mobility shift assay (MSA)
- Assay type: biochemical
- EXPERIMENTAL CONTEXT: read-out: CDK7 (nM) inhibitory IC50

Solved cases below.
Recorded IC50 for CC1(O)CCN(c2ccc(S(=O)(=O)N3CCC(Nc4ncc(C(F)(F)F)c(O[C@H]5CCOC5)n4)CC3)cc2)CC1 [Compound 133] , please?
10 to 50 nM

Repeat for the following compound: Cn1cc(S(=O)(=O)N2CCC(Nc3ncc(C#N)c(N[C@H]4CCOC4)n3)CC2)cn1 [Compound 44]
100 to 1000 nM

Repeat for the following compound: O=S(=O)(c1ccc([C@H]2CCCNC2)cc1)N1CCC(Nc2ncc(C(F)(F)F)c(O[C@H]3CCOC3)n2)CC1 (single isomer, unassigned) [Example 115]
2.5 to 10 nM

Repeat for the following compound: O=S(=O)(c1ccc(Br)cc1)N1CCC(Nc2ncc(C(F)(F)F)c(C=C3CCCC3)n2)CC1 [Compound 200]
50 to 100 nM

Repeat for the following compound: O=S(=O)(c1ccc([C@@H]2CCCNC2)cc1)N1CCC(Nc2ncc(C(F)(F)F)c(O[C@H]3CCOC3)n2)CC1 (single isomer, unassigned) [Example 114]
2.5 to 10 nM

Repeat for the following compound: Cn1cc(-c2ccc(S(=O)(=O)N3CCC(Nc4ncc(C(F)(F)F)c(O[C@H]5CCOC5)n4)CC3)cc2)cn1 [Compound 142]
2.5 to 10 nM

API: the following record is the query input.
Recorded IC50 for Cn1cnc(S(=O)(=O)N2CCC(Nc3ncc(C#N)c(NC4CCCC4)n3)CC2)c1 [Compound 34] , please?
100 to 1000 nM

----------
Reported IC50 values follow for various molecules
- TARGET OR SYSTEM: CDK6 (Homo sapiens, UniProt Q00534)
- Construct: purchased Carna Company
- Sequence (Q00534 whole entry): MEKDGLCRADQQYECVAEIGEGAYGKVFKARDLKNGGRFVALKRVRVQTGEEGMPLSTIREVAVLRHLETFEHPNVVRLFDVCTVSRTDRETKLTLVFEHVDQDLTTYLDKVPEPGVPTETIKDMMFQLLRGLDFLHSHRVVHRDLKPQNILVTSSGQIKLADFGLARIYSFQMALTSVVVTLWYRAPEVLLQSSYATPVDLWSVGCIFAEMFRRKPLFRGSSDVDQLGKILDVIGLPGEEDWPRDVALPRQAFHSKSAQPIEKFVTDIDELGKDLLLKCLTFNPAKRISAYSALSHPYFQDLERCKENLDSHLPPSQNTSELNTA
- Sequence (P30281 whole entry partner): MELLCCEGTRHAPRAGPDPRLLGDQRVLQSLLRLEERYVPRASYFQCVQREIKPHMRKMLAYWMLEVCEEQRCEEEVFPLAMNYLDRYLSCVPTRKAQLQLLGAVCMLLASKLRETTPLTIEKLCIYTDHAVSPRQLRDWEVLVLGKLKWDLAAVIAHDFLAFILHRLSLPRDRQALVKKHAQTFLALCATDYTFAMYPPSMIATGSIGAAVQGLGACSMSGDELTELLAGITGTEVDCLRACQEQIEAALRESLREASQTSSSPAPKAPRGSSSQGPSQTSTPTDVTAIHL
- ASSAY NAME: CDK enzymology experiment in vitro, capillary mobility shift assay (MSA)
- Type: biochemical
- EXPERIMENTAL CONTEXT: read-out: CDK6 (nM) inhibitory IC50

Solved cases below.
Item: Cn1cc(-c2ccc(S(=O)(=O)N3CCC(Nc4ncc(C#N)c(N[C@H]5CCOC5)n4)CC3)cc2)cn1 [Example 8] Test system: CDK6 (Homo sapiens, UniProt Q00534) Read-out: IC50 Value: ?
0.5 to 2.5 nM

Repeat for the following molecule: N#Cc1cnc(NC2CCN(S(=O)(=O)c3ccc(C4=CCNCC4)cc3)CC2)nc1O[C@H]1CCOC1 [Compound 104]
0.5 to 2.5 nM

Repeat for the following molecule: O=S(=O)(c1ccc(N2CC3CCC(C2)N3)nc1)N1CCC(Nc2ncc(C(F)(F)F)c(O[C@H]3CCOC3)n2)CC1 [Compound 182]
0.5 to 2.5 nM

Repeat for the following molecule: COc1cc(S(=O)(=O)N2CCC(Nc3ncc(C(F)(F)F)c(O[C@H]4CCOC4)n3)CC2)ccc1C1=CCNCC1 [Compound 194]
0.5 to 2.5 nM

Repeat for the following molecule: O=S(=O)(c1cnn(CCO)c1)N1CCC(Nc2ncc(C(F)(F)F)c(O[C@H]3CCOC3)n2)CC1 [Example 27]
10 to 50 nM

Repeat for the following molecule: O=S(=O)(c1ccc(C2CCNCC2)nc1)N1CCC(Nc2ncc(C(F)(F)F)c(O[C@H]3CCOC3)n2)CC1 [Compound 174]
0.5 to 2.5 nM

---
Item: O=S(=O)(c1ccc(N2CC3CC(C2)N3)cc1)N1CCC(Nc2ncc(C(F)(F)F)c(O[C@H]3CCOC3)n2)CC1 [Compound 179] Test system: CDK6 (Homo sapiens, UniProt Q00534) Read-out: IC50 Value: ?
0.5 to 2.5 nM
